This collection of values is drawn from patent US20230340128A1.

# system-under-test: cyno MSLN (Macaca fascicularis)
# procedure-summary: BLI (Octet), bsAb in 1+1 Fab-scFv-Fc format
measurement-kind: kon (M⁻¹ s⁻¹)
Numeric answer only, unit M⁻¹ s⁻¹ assumed.

Look up and report measured kon for this entry: XENP32555 (bispecific antibody, part only; not given: anti-CD3 scFv-Fc arm, constant regions, V domains shown, not shown: another chain or arm of the molecule; a dimerising Fc or GST; small tags and cut ends) VH: QVQLVQSGAEVKKPGASVKVSCKASGYTFTSYWMHWVRQAPGQGLEWMGMIHPNSGNTIYYEKFQGRVTMTVDKSISTAYMELSRLRSDDTAVYYCAIIITPVVPKFDYWGQGTLVTVSS VL: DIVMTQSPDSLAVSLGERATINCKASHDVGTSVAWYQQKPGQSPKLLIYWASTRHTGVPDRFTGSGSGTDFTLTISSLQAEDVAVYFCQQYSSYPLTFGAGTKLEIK
566000

Look up and report measured kon for this entry: XENP32558 (bispecific antibody, part only; not given: anti-CD3 scFv-Fc arm, constant regions, V domains shown, not shown: another chain or arm of the molecule; a dimerising Fc or GST; small tags and cut ends) VH: QVQLVQSGAEVKKPGASVKVSCKASGYTFTSYWMHWVRQAPGQGLEWMGMIHPNSDNTIYYEKFQGRVTMTVDKSISTAYMELSRLRSDDTAVYYCAIIITPVVPRFDYWGQGTLVTVSS VL: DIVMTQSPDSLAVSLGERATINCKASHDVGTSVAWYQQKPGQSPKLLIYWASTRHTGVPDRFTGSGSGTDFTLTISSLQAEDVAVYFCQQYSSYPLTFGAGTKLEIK
238000
